# TGI values compiled below
# Test system: NCI-H522 lung
# Experimental protocol: NCI tumour cell line growth inhibition, 48 h

Compound	TGI
Nc1ncnc2c1nc(Cl)n2C1OC2COP(=O)(O)OC2C1O (stereo not drawn)	> 300 µM

Find TGI (NCI-H522 lung) for the entry `Cc1nc2sc3ccccc3n2c(=O)c1N=Nc1ccc(Br)cc1` > 100 µM

For the record CCC/C(=N/NC(=O)C(N)=O)C(CC)C(=O)CCC(=O)N(Cc1ccccc1)Cc1ccccc1 (stereo not drawn) , what value of TGI is listed for NCI-H522 lung? > 100 µM

###

# Test system: SNB-75 CNS
# Experimental protocol: NCI tumour cell line growth inhibition, 48 h
Measure: TGI

Worked examples, 5 compounds total:
COc1ccc(C(=O)Cn2c(C(=O)/C=C/c3ccco3)nc3ccccc32)cc1 > 100 µM
CC1(C)O[C@@H]2[C@@H](COC(=O)c3ccccc3)C[C@@H](C#N)[C@@H]2O1 > 100 µM
C=CC(=O)N1CCN(c2nc(=O)n(-c3c(C)ccnc3C(C)C)c3nc(-c4c(O)cccc4F)c(F)cc23)[C@@H](C)C1 > 91.4 µM
Ic1ccccc1-c1ccccc1 > 100 µM
COc1cc(C)c(/C=C/C(=O)N2C(=O)OC[C@@H]2c2ccccc2)c(C)c1 > 100 µM

API: value(readout= TGI, system= SNB-75 CNS, query= `c1ccc(Cc2nc(Cc3n[nH]c(Cc4ccccc4)n3)n[nH]2)cc1` ) > 100 µM

So what TGI did `COc1c(OC)c(OC)c2c(c1OC)c(=O)c1ccccc1n2C` get with SNB-75 CNS? > 100 µM

TGI of `Cc1ccc(C)n1-n1c(Cc2ccccc2)n[nH]c1=O` on SNB-75 CNS? > 100 µM

Any idea what TGI came out for `COC(=O)N1CCc2c(nc(N(C)CCO)[nH]c2=O)C1` on SNB-75 CNS? > 100 µM

Recall the recorded TGI for `CS/C1=C(\c2ccc(C)cc2)N(c2ccccc2)C(=O)C(=O)N(c2ccccc2)/C(c2ccc(C)cc2)=C(/SC)SS1` with SNB-75 CNS and state it. > 100 µM

###

# Tested on: U251 CNS
// allowed return values: true (1) (active), false (0) (inactive)

Use the examples below as a reference point.
COc1cc2cc(Oc3ccc(NC(=O)Nc4cccc(C(F)(F)F)c4)cc3)c(C)nc2cc1OC false (0)
O=C(CN1CCN(CCCOc2c(-c3ccccc3)oc3ccccc3c2=O)CC1)Nc1ccc(Cl)cc1C(=O)c1ccccc1Cl false (0)
CCOC(=O)c1[nH]c(Br)c(-c2ccc(Br)cc2)c1Br true (1)
Fc1ccc2c(c1)c(-c1nc(-c3c[nH]c4ncccc34)cs1)cn2CCCN1CCCCC1 false (0)
O=C1/C(=C/c2ccccc2)CN(C(=O)c2cccnc2)C/C1=C\c1ccccc1 false (0)

Which outcome did this test record for the compound `CC(C)(O)CS(=O)(=O)Nc1ccc2c(c1)CCN(C(=O)COc1cccnc1)C2` ? false (0)

Please state the recorded outcome for this compound: `CCCc1cc2c(=O)c(C(=O)OC)c[nH]c2cc1N(CC)CC` false (0)

GET /call?item= `c1ccc2[nH]c(-c3ccc(NN=Nc4ccncc4)cc3)nc2c1` returns the recorded outcome of this test. false (0)

###

Each entry below carries its recorded TGI.
# Test system: DLD-1 colon
# Experimental protocol: NCI tumour cell line growth inhibition, 48 h
Unit µM implied. Number only.

Molecule	TGI (µM)
Cn1c(=O)nc2n(-c3cccc(Br)c3)c3ccccc3nc-2c1=O	29.1

Name the reported TGI value associated with the molecule CC(=O)OC(C)C1C2=C(C(=O)CC1(C)O)C(=O)c1c(ccc(-c3ccc4c(c3O)C(=O)C3=C(C4=O)C(C(C)OC(C)=O)C(C)(O)CC3=O)c1O)C2=O (stereo not drawn) 2.43

Cited source for all entries: PubChem BioAssay (NCI)
